Record form. Attribute: pIC50. Fill in for each entry.
- study-system: Cyclin-dependent kinase 4/cyclin D1 (Homo sapiens, UniProt P11802)
- Sequence (P11802 whole entry): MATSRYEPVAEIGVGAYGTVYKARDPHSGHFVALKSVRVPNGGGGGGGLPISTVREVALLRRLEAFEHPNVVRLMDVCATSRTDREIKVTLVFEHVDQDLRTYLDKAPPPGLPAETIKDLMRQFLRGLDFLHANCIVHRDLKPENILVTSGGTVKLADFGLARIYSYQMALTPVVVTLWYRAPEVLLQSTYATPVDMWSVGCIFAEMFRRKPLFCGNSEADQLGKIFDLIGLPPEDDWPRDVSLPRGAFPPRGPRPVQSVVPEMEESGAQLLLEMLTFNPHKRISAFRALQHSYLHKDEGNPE
- Sequence (P24385 whole entry, further chain): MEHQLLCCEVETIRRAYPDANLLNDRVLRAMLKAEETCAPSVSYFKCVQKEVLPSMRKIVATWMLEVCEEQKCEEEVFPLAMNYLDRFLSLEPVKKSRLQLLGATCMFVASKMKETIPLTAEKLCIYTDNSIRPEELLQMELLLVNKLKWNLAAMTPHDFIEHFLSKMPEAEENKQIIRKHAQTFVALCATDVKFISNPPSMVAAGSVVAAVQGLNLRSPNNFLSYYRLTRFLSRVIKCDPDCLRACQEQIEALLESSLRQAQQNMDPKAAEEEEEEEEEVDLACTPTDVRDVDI
- assay-procedure: biochemical
Expect pIC50 as a plain number equal to -log10 of the molar concentration.

IN: # get_value(readout='pIC50', item= `O=C1NC(=O)c2c1c1c3ccccc3[nH]c1c1[nH]c3cc(Br)ccc3c21` )
OUT: 7.04

IN: # get_value(readout='pIC50', item= `CCn1cnc2c(Nc3cccc(Cl)c3)nc(N[C@@H]3CCCC[C@@H]3N)nc21` )
OUT: 5.52

IN: # get_value(readout='pIC50', item= `CC(C)c1cnc(NC(=O)Cc2ccccc2)s1` )
OUT: 4.69

IN: # get_value(readout='pIC50', item= `Nc1nc(Nc2ccc(S(N)(=O)=O)cc2)nn1C(=S)Nc1c(F)cccc1F` )
OUT: 7.23

IN: # get_value(readout='pIC50', item= `O=C1Nc2ccc3ncsc3c2/C1=C/Nc1ccc(S(=O)(=O)Nc2ccccn2)cc1` )
OUT: 6.86

* * *

Record form. Attribute: pIC50. Fill in for each entry.
- study-system: Cyclin-dependent kinase 4/cyclin D1 (Homo sapiens)
- assay-procedure: biochemical
Expect pIC50 as a plain number equal to -log10 of the molar concentration.

IN: # get_value(readout='pIC50', item= `CCCOc1cnc(CN/C=C2\C(=O)NC(=O)c3ccc(I)cc32)cc1O` )
OUT: 7.42

IN: # get_value(readout='pIC50', item= O=C1NC(=O)c2c1c1c3ccccc3[nH]c1c1[nH]c3ccccc3c21 [STAUROSPORINE AGLYCON] )
OUT: 6.70

IN: # get_value(readout='pIC50', item= `Cc1ccc(NC2=CC(=O)c3sc(C)nc3C2=O)cc1` )
OUT: 5.02

IN: # get_value(readout='pIC50', item= `CCCCOc1c(C(=O)c2c(F)cc(C)cc2F)c[nH]c2nncc1-2` )
OUT: 6.65

IN: # get_value(readout='pIC50', item= `OCCCNc1cc(-c2ccnc(Nc3cccc(Cl)c3)n2)ccn1` )
OUT: 6.67

IN: # get_value(readout='pIC50', item= CN1CCN(c2ccc(Nc3ncc4cc(C#N)c(=O)n(C5CCCC5)c4n3)cc2)CC1 [NARAZACICLIB] )
OUT: 7.74

IN: # get_value(readout='pIC50', item= `CCN(CC)C(=O)c1ccc(Nc2nc(OCC3CCCCC3)c3nc[nH]c3n2)cc1` )
OUT: 6.03

* * *

- study-system: Cyclin-dependent kinase 1/cyclin B1 (Homo sapiens, UniProt P06493)
- Sequence (P06493 whole entry): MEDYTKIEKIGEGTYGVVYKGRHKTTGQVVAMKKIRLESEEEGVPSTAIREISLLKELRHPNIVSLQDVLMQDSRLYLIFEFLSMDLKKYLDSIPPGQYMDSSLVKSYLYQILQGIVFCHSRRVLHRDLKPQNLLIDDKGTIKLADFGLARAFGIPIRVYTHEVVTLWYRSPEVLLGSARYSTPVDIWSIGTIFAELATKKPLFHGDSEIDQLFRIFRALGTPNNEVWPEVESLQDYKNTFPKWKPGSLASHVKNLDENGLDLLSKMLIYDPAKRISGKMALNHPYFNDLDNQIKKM
- Sequence (P14635 whole entry, further chain): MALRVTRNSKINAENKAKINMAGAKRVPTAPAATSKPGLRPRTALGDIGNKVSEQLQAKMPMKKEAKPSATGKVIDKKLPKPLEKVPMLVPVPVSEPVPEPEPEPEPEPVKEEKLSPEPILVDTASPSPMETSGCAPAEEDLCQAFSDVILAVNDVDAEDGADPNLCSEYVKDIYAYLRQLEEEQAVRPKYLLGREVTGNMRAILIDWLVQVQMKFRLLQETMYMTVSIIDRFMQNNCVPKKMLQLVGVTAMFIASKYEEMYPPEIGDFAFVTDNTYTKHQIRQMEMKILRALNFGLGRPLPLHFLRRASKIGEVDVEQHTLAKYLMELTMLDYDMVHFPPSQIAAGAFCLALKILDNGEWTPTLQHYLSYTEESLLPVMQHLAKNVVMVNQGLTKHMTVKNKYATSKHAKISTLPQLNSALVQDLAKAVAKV
- assay-procedure: biochemical
value-kind: log10(IC50) (log10 of the value in nM)
Answers are given as log10 of IC50 in nM.

IN: # get_value(readout='log10(IC50)', item= `O=C1NC(=O)c2c1c1c3ccccc3[nH]c1c1[nH]c3ccccc3c21` )
OUT: 2.98

IN: # get_value(readout='log10(IC50)', item= `Nc1n[nH]c2nc3ccccc3nc12` )
OUT: 3.99

IN: # get_value(readout='log10(IC50)', item= `Nc1cc(Nc2ccc(S(N)(=O)=O)cc2)ncn1` )
OUT: 3.72

IN: # get_value(readout='log10(IC50)', item= `CNC(=O)c1nn(C)c2c1C(C)(C)Cc1cnc(Nc3ccc(N4CCN(C)CC4)cc3)nc1-2` )
OUT: 3.08

IN: # get_value(readout='log10(IC50)', item= `CC[C@H](CO)Nc1nc(Nc2cccc(-c3ccccn3)c2)c2ncn(C(C)C)c2n1` )
OUT: 3.57

IN: # get_value(readout='log10(IC50)', item= `CC(C)c1cnc(NC(=O)Cc2ccccc2)s1` )
OUT: 3.23

IN: # get_value(readout='log10(IC50)', item= `O=C1NC(=O)c2c1c1c3ccccc3[nH]c1c1[nH]c3cc(Br)ccc3c21` )
OUT: 3.18

IN: # get_value(readout='log10(IC50)', item= `OCCCNc1cc(-c2ccnc(Nc3cccc(Cl)c3)n2)ccn1` )
OUT: 1.41

IN: # get_value(readout='log10(IC50)', item= `Nc1nc(Nc2ccc(S(N)(=O)=O)cc2)nn1C(=S)Nc1c(F)cccc1F` )
OUT: 0.30

IN: # get_value(readout='log10(IC50)', item= `O=C1Nc2ccccc2/C1=C\c1c(Cl)[nH]c2ccccc12` )
OUT: 3.83

IN: # get_value(readout='log10(IC50)', item= `CCCCOc1c(C(=O)c2c(F)cc(C)cc2F)c[nH]c2nncc1-2` )
OUT: 1.15

IN: # get_value(readout='log10(IC50)', item= `COc1ccc(CNc2nc(N(CCO)CCO)nc3c2ncn3C(C)C)cc1` )
OUT: 3.57

IN: # get_value(readout='log10(IC50)', item= `CN1CCN(c2ccc(Nc3ncc4cc(C#N)c(=O)n(C5CCCC5)c4n3)cc2)CC1` )
OUT: 2.78

IN: # get_value(readout='log10(IC50)', item= `O=C1Nc2ccc3ncsc3c2/C1=C/Nc1ccc(S(=O)(=O)Nc2ccccn2)cc1` )
OUT: 1.69

IN: # get_value(readout='log10(IC50)', item= `CCCOc1cnc(CN/C=C2\C(=O)NC(=O)c3ccc(I)cc32)cc1O` )
OUT: 2.46

IN: # get_value(readout='log10(IC50)', item= `CCn1cnc2c(Nc3cccc(Cl)c3)nc(N[C@@H]3CCCC[C@@H]3N)nc21` )
OUT: 2.17

IN: # get_value(readout='log10(IC50)', item= `CCN(CC)C(=O)c1ccc(Nc2nc(OCC3CCCCC3)c3nc[nH]c3n2)cc1` )
OUT: 3.76
